Molecular target: Protein deacetylase HDAC6 (Homo sapiens, UniProt Q9UBN7)
Sequence (Q9UBN7 whole entry): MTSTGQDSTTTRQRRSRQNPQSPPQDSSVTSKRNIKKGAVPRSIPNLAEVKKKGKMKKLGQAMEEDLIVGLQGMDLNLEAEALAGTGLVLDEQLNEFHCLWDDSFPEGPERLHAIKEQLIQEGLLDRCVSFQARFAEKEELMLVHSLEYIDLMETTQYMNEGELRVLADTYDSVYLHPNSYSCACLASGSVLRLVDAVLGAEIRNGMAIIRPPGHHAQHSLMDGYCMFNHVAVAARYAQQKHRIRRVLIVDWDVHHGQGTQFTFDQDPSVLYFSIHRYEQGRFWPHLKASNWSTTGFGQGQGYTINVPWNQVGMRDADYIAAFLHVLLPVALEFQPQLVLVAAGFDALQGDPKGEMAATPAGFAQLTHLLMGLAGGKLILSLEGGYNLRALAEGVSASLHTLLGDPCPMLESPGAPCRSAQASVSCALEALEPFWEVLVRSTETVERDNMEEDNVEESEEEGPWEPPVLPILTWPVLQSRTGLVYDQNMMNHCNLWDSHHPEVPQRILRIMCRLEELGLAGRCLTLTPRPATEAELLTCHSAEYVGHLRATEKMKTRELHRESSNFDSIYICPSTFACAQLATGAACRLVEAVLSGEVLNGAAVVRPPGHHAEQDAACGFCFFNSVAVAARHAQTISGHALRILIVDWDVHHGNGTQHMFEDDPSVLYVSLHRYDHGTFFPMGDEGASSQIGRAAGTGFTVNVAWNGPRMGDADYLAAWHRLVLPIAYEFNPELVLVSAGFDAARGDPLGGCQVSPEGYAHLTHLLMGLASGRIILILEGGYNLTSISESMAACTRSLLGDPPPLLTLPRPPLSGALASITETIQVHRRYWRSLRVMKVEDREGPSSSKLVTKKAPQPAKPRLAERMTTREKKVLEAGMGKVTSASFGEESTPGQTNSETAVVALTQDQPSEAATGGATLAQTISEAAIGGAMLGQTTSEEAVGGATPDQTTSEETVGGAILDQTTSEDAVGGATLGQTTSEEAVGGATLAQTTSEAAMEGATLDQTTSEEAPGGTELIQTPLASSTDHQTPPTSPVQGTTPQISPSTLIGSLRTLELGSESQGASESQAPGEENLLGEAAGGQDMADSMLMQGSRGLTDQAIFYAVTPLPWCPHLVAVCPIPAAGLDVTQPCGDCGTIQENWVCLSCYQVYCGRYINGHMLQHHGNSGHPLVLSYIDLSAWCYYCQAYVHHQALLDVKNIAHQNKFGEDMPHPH
pIC50: −log10 of the molar value.
Assay read-out pIC50 on Protein deacetylase HDAC6 (Homo sapiens, UniProt Q9UBN7); records merged from the literature.
quantityMeasured: pIC50

Entry `O=C(CCCCCCC(=O)Nc1cccc(-n2cc(-c3ccccc3)nn2)c1)NO` under Protein deacetylase HDAC6 (Homo sapiens, UniProt Q9UBN7) had pIC50 of 8.51

(I) O=C(NO)c1ccc(NC2CCN(c3ccc(Cl)cc3)C2=O)cc1 (stereo not given)
(II) O=C(CCCSC[C@H](NC(=O)OCc1ccccc1)C(=O)Nc1ccccc1)NO
Q) Which record shows the lower pIC50: the first, I , or the second, II ? Identify your selection by its label.
A) I
(I: 6.80, II: 7.69)

(P) CC(C)C[C@H]1CC(=O)N[C@@H](C)C(=O)N[C@@H](CCCCCC(=O)C(F)(F)F)C(=O)N[C@@H](Cc2c[nH]c3ccccc23)C(=O)N1
(Q) COc1cccc2c(C(CCCCCC(=O)NO)c3c[nH]c4c(OC)cccc34)c[nH]c12
(R) O=C(NO)c1ccc(Cn2ccc3cc(C(=O)c4ccc(Cl)cc4)ccc32)cc1
(S) Nc1nc2c(cnn2CCCCC(=O)NO)c2nc(-c3ccco3)nn12
Q) rank_up(items): orders items by reported pIC50 in ascending numerical order. Output the labels ranked as instructed.
A) P, S, R, Q

(I) O=C(NO)c1csc(C(c2ccccc2)c2ccccc2)n1
(II) CC(=O)Nc1ccc(-c2ccnc(Nc3cccc(OCCCCCC(=O)NO)c3)n2)cc1
Q) Between I and II , which one shows the larger pIC50 value? Lab log: write the label of the selected item as the result.
A) II
(II: 8.62, I: 5.43)
